biological target: UniProt:P53396; test: Inhibition of ATP citrate lyase (unknown origin) at 10 uM using sodium citrate as substrate after 60 mins by ADP-Glo luminescence assay relative to control
Sequence (P53396 whole entry): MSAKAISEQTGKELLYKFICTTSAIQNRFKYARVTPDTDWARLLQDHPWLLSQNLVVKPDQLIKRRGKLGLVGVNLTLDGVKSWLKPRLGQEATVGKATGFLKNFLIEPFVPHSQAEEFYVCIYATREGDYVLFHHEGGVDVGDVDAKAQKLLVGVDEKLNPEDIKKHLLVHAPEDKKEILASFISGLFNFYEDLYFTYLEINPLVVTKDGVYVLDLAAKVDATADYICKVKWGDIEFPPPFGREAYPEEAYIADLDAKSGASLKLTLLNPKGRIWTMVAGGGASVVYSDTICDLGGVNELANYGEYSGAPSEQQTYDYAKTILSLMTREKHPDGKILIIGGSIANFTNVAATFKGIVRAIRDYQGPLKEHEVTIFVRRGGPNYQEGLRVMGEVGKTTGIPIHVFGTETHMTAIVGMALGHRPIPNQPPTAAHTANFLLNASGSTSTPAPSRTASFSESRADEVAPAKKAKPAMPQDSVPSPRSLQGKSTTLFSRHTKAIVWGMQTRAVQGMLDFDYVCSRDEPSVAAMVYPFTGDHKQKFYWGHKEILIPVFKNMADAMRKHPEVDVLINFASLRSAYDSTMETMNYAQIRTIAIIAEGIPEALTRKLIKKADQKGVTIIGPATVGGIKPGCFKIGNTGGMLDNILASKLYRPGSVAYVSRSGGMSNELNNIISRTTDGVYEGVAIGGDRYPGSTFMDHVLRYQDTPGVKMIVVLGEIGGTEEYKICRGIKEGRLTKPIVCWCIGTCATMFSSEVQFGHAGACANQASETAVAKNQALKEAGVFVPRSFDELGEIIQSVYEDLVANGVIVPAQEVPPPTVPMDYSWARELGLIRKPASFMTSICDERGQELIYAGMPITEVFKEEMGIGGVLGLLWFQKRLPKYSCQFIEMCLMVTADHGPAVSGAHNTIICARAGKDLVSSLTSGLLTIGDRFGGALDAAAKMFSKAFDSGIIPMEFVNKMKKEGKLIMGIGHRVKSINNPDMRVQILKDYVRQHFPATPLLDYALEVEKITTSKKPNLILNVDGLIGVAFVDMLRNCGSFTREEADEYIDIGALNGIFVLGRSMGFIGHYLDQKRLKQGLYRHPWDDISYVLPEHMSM

{"columns": ["Test Smiles", "inhibition"],
 "data": [
  ["COc1cc2c(c(OC)c1Cl)C(=O)c1c(OC)cc(C)cc1C2=O", "0%"],
  ["Cc1cc(O)c2c(c1)C(=O)c1cc(O)c(CN(C)c3ccccc3)c(O)c1C2=O", "6%"],
  ["Cc1cc(O)c2c(c1)C(=O)c1c(Br)c(O)c(Br)c(O)c1C2=O", "> 99%"],
  ["Cc1cc(O)c2c(c1)Cc1cc(O)cc(O)c1C2=O", "0%"],
  ["Cc1cc(O)c2c(c1)C(=O)c1cc(O)c(CN3CCOCC3)c(O)c1C2=O", "10%"],
  ["Cc1ccc(-c2c(O)cc3c(c2O)C(=O)c2c(O)cc(C)cc2C3=O)cc1", "0%"],
  ["COc1cc(OC)cc(-c2c(O)cc3c(c2O)C(=O)c2c(O)cc(C)cc2C3=O)c1", "0%"]
]}
